# key: entry, value: Neutralization IC50 (RSV subtype A)
target: RSV F on RSV-A2 virus (Respiratory syncytial virus (RSV-A2)); assay: cell-based or functional assay
Note: unit µg/mL is implicit; provide only the numeric part.

ADI-41245 (antibody, V domains shown) VH: QVQLVESGGGLVKPGGSLRLSCAASGFSFSAYYMSWIRQAPGKGLEWISNISGGSSYANYADSVEGRFTISRDNAKNSLYLQMNSLRAEDTAVYYCAREFQTYYYMDVWGKGTTVTVSS VL: QPVLTQPPSVSGAPGQRVTISCTGSSSNIGAGYEVHWYQQLPGTAPKLLIYGNNNRPSGVPDRFSGSKSGTSASLAITGLQAEDEADYYCQSYDSSLSGSVFGGGTKLTVL
0.71

# next binder below
response.value for ADI-41302 (antibody, V domains shown) VH: QVQLVESGGGVVQPGRSLRLSCAASGFTFSSYAMQWVRQAPGKGLEWVAVMTNDGDDKYYADSVRGRFTISRDNSKNTLYLQMNNLRPEDTAVYYCARDLFEWWELLGYCYAMDVWGQGTTVTVSS VL: QSVLTQPPSASGSPGQSVTISCTGTSSDVGAYNYVSWYQQHPGKAPKLIIYEVYKRPSGVPDRFFGSKSGNTASLTVSGLQAEDEADYYCSSYAGSNTLGVFGGGTKVTVL (field: Neutralization IC50 (RSV subtype A)) = 0.006
